tested on: HEK-293T; assay: Multiplex assay against HEK293T; format: toxicity, cell-based; conditions: human, 24 h, 1 µM, compound concentration 1 uM, replicate 2
parameter: Population Mitotic Cells (%)
Give bare numbers, in %.

molecule=CCCSc1nc(N[C@@H]2C[C@H]2c2ccc(F)c(F)c2)c2nnn([C@@H]3C[C@H](OCCO)[C@@H](O)[C@H]3O)c2n1 unit=% quantitative_result=81
molecule=CNC(=O)Nc1ccc(-c2nc(N3CC4CCC(C3)O4)c3cnn(C4CCC5(CC4)OCCO5)c3n2)cc1 unit=% quantitative_result=78
molecule=CC(C)OC(=O)N1CCC(Oc2ncnc3c2cnn3-c2ccc(S(C)(=O)=O)cc2F)CC1 unit=% quantitative_result=88

Below are 5 molecules. Give each one its Population Mitotic Cells (%).
1. CC(C)NC(=O)N1CC[C@H](NC2=Nc3cc(F)ccc3N(CC(F)F)c3ccc(Cl)cc32)C1
2. CC(C)Oc1ccccc1C(=O)Nc1ccccc1C(=O)Nc1cccc(S(=O)(=O)C(F)(F)F)c1
3. CN1CCN(Cc2ccc(Nc3ncc(Cl)c(Nc4ccccc4S(=O)(=O)N(C)C)n3)cc2)CC1
4. Cc1ccc2c(c1)c1c(n2CCc2ccc(C)nc2)CCN(C)C1 [LATREPIRDINE]
5. CCc1nn(CCCN2CCN(c3cccc(Cl)c3)CC2)c(=O)n1CCOc1ccccc1.Cl [NEFAZODONE HYDROCHLORIDE]

**A:**
84
58
72
70
76

---

test system: U2OS; experiment: Incucyte cell viability with U2OS; type: toxicity, cell-based; settings: human, 12 h, 10 µM, compound concentration 10 uM, replicate number 2, timepoint 12 hours; note: filed as whole numbers so only -1 and 0 and 1 occur
Would you kindly list Growth Rate for each of these compounds?
Give bare numbers.

Recorded Growth Rate, per entry:
compound=O=C(NCC(=O)N1CCCC1)Nc1ccc2cnccc2c1 quantitative_result=0
compound=O=C1CCc2cc(Nc3cc(OC4CCOCC4)c([N+](=O)[O-])cc3Cl)ccc2N1 quantitative_result=1
compound="Cc1cc(C(C)(C)C)c(O)c(C)c1CC1=NCCN1.Cl [OXYMETAZOLINE HYDROCHLORIDE]" quantitative_result=1
compound=CCNC(=O)c1cc2c(N3CCOC[C@@H]3C)ccnc2n1C quantitative_result=1

Here is another compound to look at.
**Q:** Dear colleague, I am looking for the recorded Growth Rate of the following compound: CO[C@@H](C)c1c(Nc2ccc([C@H](N(C)C(=O)C3CCS(=O)(=O)CC3)C(F)(F)F)cc2)cnc2cc(Cl)nn12
**A:** 0

---

tested on: U2OS; assay: Multiplex assay against U2OS; type: toxicity, cell-based; details: human, 12 h, 1 µM, compound concentration 1 uM, replicate 1
The label depends only on Population Fragmented Nuclei (%): YES if it is at least 10%, NO if it is smaller.

Here are 5 molecules together with their reported answers.
molecule=COc1ccccc1CN[C@H]1C2CCN(CC2)[C@H]1C(c1ccccc1)c1ccccc1 assigned_label=YES
molecule=CNC(=O)Nc1ccc2c(c1)[C@@]1(CC2)OC(=O)N(CC(=O)N(Cc2ccc(F)cc2)[C@@H](C)C(F)(F)F)C1=O assigned_label=NO
molecule=CC(C)c1noc(N2CCC(COc3ccc(-c4ccc(S(C)(=O)=O)cc4)nc3)CC2)n1 assigned_label=YES
molecule=COc1cc(Nc2nccc(-c3cnn4nc(OC)ccc34)n2)cc(C(F)(F)F)c1 assigned_label=YES
molecule=CNC(=O)Nc1ccc(-c2nc(N3CC4CCC(C3)O4)c3cnn(C4CCC5(CC4)OCCO5)c3n2)cc1 assigned_label=YES

**Q:** Given the entry O=c1[nH]c2ccccc2n1C1CCN(Cc2ccc(-c3[nH]c4cc5ncnc5cc4nc3-c3ccccc3)cc2)CC1 , answer whether its Population Fragmented Nuclei (%) meets or surpasses 10%.
**A:** NO

**Q:** Given the entry O=C(c1cc2c(cc1F)OC(c1ccc(F)cc1)(c1ccc(Cl)cc1Cl)O2)N1CCOCC1 (configuration not stated) , answer whether its Population Fragmented Nuclei (%) meets or surpasses 10%.
**A:** YES

Reference for the values: ChEMBL document CHEMBL4689842
